Test system: K-562 leukemia
Assay: NCI-60 one-dose screen, 48 h (100 = growth as untreated, 0 = no growth, -100 = all killed)
Conditions: 10 µM unless noted
This is part of a sample that, as a whole, favours compounds with a hit. Of some 83,000 tested, about 20% had one in any assay.
growth values for the compounds below.
Endpoint Label: growth (%)

COc1ccc(/C(=N\O)c2cc(OC)c(OC)c(OC)c2)c(OC)c1N; 7.11
COc1cc2c3c(c(=O)oc2cc1OS(=O)(=O)c1ccc(C(F)(F)F)cc1)CCCCC3; 97.3
O=C1Nc2ccc(Br)cc2C1=N/C=c1\[nH]c(=O)/c(=C/c2ccc(Cl)cc2)s1; 81
Cc1ccc(-c2csc3nc(C)c(CCCl)c(=O)n23)cc1; 95
Cc1ccccc1C(=O)c1ccccc1C(=O)O; 106

====

System: NCI-H23 lung
Test: NCI-60 one-dose screen, 48 h
Conditions: 10 µM unless noted
About 83,000 compounds went through this panel and 20% of them were active in at least one assay; those are over-represented in the sample as a whole. Activity calls are given as the source filed them. Rule for the calls: active = growth percent below 10; inactive = the rest.
Outcomes: active, inactive

CCCCCCOc1ccc(C2(Cl)c3ccccc3N(C)c3ccccc32)cc1; inactive
CC(=O)/C=C/c1cc2cc(Cl)ccc2[nH]c1=O; inactive
CN=S(=O)(NC(=O)c1ccc(Cl)cc1Cl)c1ccc(Br)s1 (stereo unspecified); inactive
COc1ccc(OC)c(C(=O)c2oc3ccc(Br)cc3c2N)c1; inactive
COc1cc(C2C=C(C)N=C3SC=C(C)N32)cc(OC)c1OC (stereo unspecified); active
NS(=O)(=O)c1ccc(CN2C(=O)c3cccc4cccc(c34)C2=O)cc1; inactive
Cc1cc(C(=O)O)c(N)c(C)n1; inactive
CCn1cc(C(=O)O)c(=O)c2cc(F)c(N3CCN(S(=O)(=O)c4cccc5ccccc45)CC3)cc21; active
CC(=O)Nc1nc(C(=O)N2N=C(C)/C(=C/c3cccs3)C2=O)cs1; inactive
CC1(C)OC2COC3(C(=O)O)OC(C)(C)OC3C2O1 (stereo unspecified); inactive
Cc1cccc(NC(=O)c2sc3nc4c(cc3c2N)CCCC4)c1; inactive

====

System: HCT-15 colon
Assay: NCI-60 one-dose screen, 48 h (100 = growth as untreated, 0 = no growth, -100 = all killed)
Settings: 10 µM unless noted
About 83,000 compounds went through this panel and 20% of them were active in at least one assay; those are over-represented in the sample as a whole.
growth values for the compounds below.
Endpoint Label: growth (%)

Cn1c(C(N)=O)cc2c1-c1nc(NC3CCCCC3)ncc1CCC2; 90.5
Cc1nn(-c2ccc(Cl)cc2)c(=O)n1CCOc1ccccc1Cl; 110
COc1cc(/C=C2\CCCC3=C2N=C2SC(C)=NN2C3c2cc(OC)c(OC)c(OC)c2)cc(OC)c1OC (stereo unspecified); -20.6
C/C(=C\c1csc(C)n1)[C@@H]1C[C@@H]2O[C@]2(C)CCC[C@H](C)[C@H](O)[C@@H](C)C(=O)C(C)(C)[C@@H](O)CC(=O)N1; -93.4
Nc1cc2c(cc1N)-c1cc(N)c(N)cc1C2; 97.4
CCN1C(=O)N(CC)C2C1NN=c1s/c(=C\c3ccccn3)c(=O)n12 (stereo unspecified); 33.5
Cc1ccc2nc(-c3c(CCCO)noc3N)[nH]c(=O)c2c1; 105
O=C(Nc1cccc(C(F)(F)F)c1)Nc1ccc(OCc2nnc(-c3ccccc3)o2)c(F)c1; 26.7
Nc1c(C(=O)Nc2cccc(Cl)c2Cl)sc2nc3c(cc12)C(=O)CCC3; 75.5
COc1cccc(/C=C2\SC(N3CCN(c4ccccn4)CC3)=NC2=O)c1; 105
Cc1oc2ncnc(Nc3ccccc3)c2c1C(=O)NCCO; 98.1
CC/C(=C(\c1ccc(O)cc1)c1ccc(OCCN(C)CCN(C)C(=O)CCC(=O)c2c(C)[nH]c(/C=C3\N=C(c4ccc[nH]4)C=C3OC)c2C)cc1)c1ccccc1; 34.3
CCCCCCCN(CCCCCCC)C(=N)c1ccc(OC)c2ccccc12; -81.4
COc1ccc(-c2nc(-c3nc4ccc(F)cc4[nH]3)cc3c2[nH]c2ccccc23)cc1; 36.1
COc1cc(CCn2nnc3c(Nc4ccc(N5CCOCC5)cc4)ncnc32)cc(OC)c1; 93.6
COc1cc(CNC(=O)CSc2nc3ccccc3c(=O)n2Cc2cc(OC)c(OC)c(OC)c2)cc(OC)c1OC; 97.4
O=C1c2ccccc2C(=O)c2c1oc1oc3c(c(=O)c21)c(=O)n(-c1ccccc1)c1ccccc31; 66.6
COc1ccc(C2NC3=C(CCCC3)C(C#N)(C#N)C2(C#N)C#N)cc1 (stereo unspecified); 65.9
CCOC(=O)c1cc(/C(=N\O)c2cc(OC)c(OC)c(OC)c2)n2c(C)cccc12; 25.7
NC(CC(N)C(=O)O)C(=O)O (stereo unspecified); 88.4
Nc1c(C(=O)Nc2ccccc2)sc2nc3c(cc12)CCC3; 55.7
CCCCCCCCCCCCOB(OCCCCCCCCCCCC)OCCCCCCCCCCCC; 105
O=C1NCC(c2cc3ccccc3[nH]c2=O)Nc2ccccc21 (stereo unspecified); 106
COc1cc(-c2nc(-c3nc4ccccc4[nH]3)cc3c2[nH]c2ccccc23)cc(OC)c1OC; 42.3
CC/C=C\C[C@H](O)C/C=C1/C(=O)C(Cl)=C[C@@H]1C/C=C\CCCC(=O)O; 16.2
COC(=O)CCCCCN=Cc1c(O)c(O)c(C(C)C)c2cc(C)c(-c3c(C)cc4c(C(C)C)c(O)c(O)c(C=NCCCCCC(=O)OC)c4c3O)c(O)c12; 17.2
Cc1cc(-c2ccccc2)c(C)n1Cc1ccc(Cl)cc1; 32.8
NC(=O)NNC(=O)c1ccccc1; 97.6
Nc1c(C(=O)Nc2c(Cl)cccc2Cl)sc2nc3c(cc12)CCCCC3; 32.5
COc1ccc(C(=O)c2cc(OC)c(OC)c(OC)c2)cc1/C=C/C(=O)c1ccc2c(c1)OCO2; -22.6
COc1ccc2c(c1)C=CC(C#N)N2C(=O)c1ccccc1 (stereo unspecified); 9.74
COc1ccc(OC)c(NC(=O)c2cc(S(=O)(=O)N3CCc4ccccc43)ccc2OC)c1; 107
C#CCN1C(=O)/C(=c2\sc3n(c2=O)C2C(NN=3)N(CC)C(=O)N2CC)c2ccccc21 (stereo unspecified); 16
O=C(c1ccccc1)C(Cl)C(Cl)c1ccccc1 (stereo unspecified); -7.84
CCOC(=O)C1=C(C)NC(=O)NC1c1ccc(OCC(=O)N/N=C/c2ccc(Cl)cc2)cc1 (stereo unspecified); 97.5
COc1ccc2c(c1)C(=O)/C(=C/c1ccc(O)cc1)O2; 52.1
CC(=O)OC[Si](C)(C)c1ccccc1; 99.7
COc1ccc(C(=O)c2cc(OC)c(OC)c(OC)c2)cc1/C=C/C(=O)c1ccc(OC)c(OC)c1; 12.8
Nc1nn2cc(-c3ccc(Cl)s3)nc2c2ccccc12; 87.5
COC12CC(=O)C(C(C)=O)=C(O)C1(C)c1c(O)c(C)c(O)c(C(C)=O)c1O2 (stereo unspecified); 66.6
Nc1cccc2c1CN(C1CCC(=O)NC1=O)C2=O (stereo unspecified); 105
